tested on: rat cortical neurons; assay: Neurite outgrowth assay; assay type: cell-based; design: key: A: Statistically significant mean increase as a percent of DMSO control at 10 μM or less.; B: No statistically significant mean increase as a percent of DMSO control at 10 μM or less; details: 72 h, 10 μM or less, vs DMSO control
PROPERTY_LABEL: Increase in Neurite Length

Known Increase in Neurite Length results, listed for orientation:
SMILES_TEXT	PROPERTY_LABEL	READOUT_VALUE
CN1CCc2[nH]c3cccc(OCc4ccccc4)c3c2CC1	Increase in Neurite Length	A
Fc1ccc(Oc2ccc3c4c([nH]c3c2)CCNCC4)cc1	Increase in Neurite Length	A
CN1CCc2[nH]c3ccc(OCc4ccccc4)cc3c2CC1	Increase in Neurite Length	A
CN1CCc2[nH]c3cccc(Oc4ccc(F)cc4)c3c2CC1	Increase in Neurite Length	A
c1ccc(COc2ccc3c4c([nH]c3c2)CCNCC4)cc1	Increase in Neurite Length	A

-- ask Assign Increase in Neurite Length to the following record: Cn1c2c(c3ccc(OCc4ccccc4)cc31)CCNCC2
-- reply B

-- ask Assign Increase in Neurite Length to the following record: Fc1ccc(COc2ccc3c4c([nH]c3c2)CCNCC4)cc1
-- reply B

-- ask Assign Increase in Neurite Length to the following record: CN1CCc2c(n(C)c3cc(Oc4ccccc4)ccc23)CC1
-- reply A

====

target: 5-HT2A (Homo sapiens); test: Serotonin 5-HT2A in vitro cellular IPOne antagonism assay; type: cell-based; set-up: host or cells: CHO-K1; conditions: CHO-K1 cells, antagonist mode, reference agonist a-Me-5HT
PROPERTY_LABEL: IC50

-- ask Assign IC50 to the following record: CN1CCc2c(n(C)c3cc(OCc4ccccc4)ccc23)CC1
-- reply 101 to 1000 nM

-- ask Assign IC50 to the following record: CN1CCc2[nH]c3c(OCc4ccccc4)cccc3c2CC1
-- reply 10 to 100 nM

-- ask Assign IC50 to the following record: c1ccc(COc2ccc3[nH]c4c(c3c2)CCNCC4)cc1
-- reply 101 to 1000 nM

-- ask Assign IC50 to the following record: CN1CCc2c(n(C)c3cccc(Oc4ccc(F)cc4)c23)CC1
-- reply 10 to 100 nM

-- ask Assign IC50 to the following record: CN1CCc2[nH]c3cccc(OCc4ccccc4)c3c2CC1
-- reply 10 to 100 nM

-- ask Assign IC50 to the following record: CN1CCc2c(n(C)c3cc(Oc4ccc(F)cc4)ccc23)CC1
-- reply 101 to 1000 nM

-- ask Assign IC50 to the following record: Cn1c2c(c3ccc(OCc4ccccc4)cc31)CCNCC2
-- reply 101 to 1000 nM

-- ask Assign IC50 to the following record: CN1CCc2[nH]c3ccc(OCc4ccccc4)cc3c2CC1
-- reply 101 to 1000 nM

-- ask Assign IC50 to the following record: CN1CCc2[nH]c3cc(Oc4ccccc4)ccc3c2CC1
-- reply 101 to 1000 nM

====

Molecular target: 5-HT2A (Homo sapiens, UniProt P28223)
Sequence (P28223 whole entry): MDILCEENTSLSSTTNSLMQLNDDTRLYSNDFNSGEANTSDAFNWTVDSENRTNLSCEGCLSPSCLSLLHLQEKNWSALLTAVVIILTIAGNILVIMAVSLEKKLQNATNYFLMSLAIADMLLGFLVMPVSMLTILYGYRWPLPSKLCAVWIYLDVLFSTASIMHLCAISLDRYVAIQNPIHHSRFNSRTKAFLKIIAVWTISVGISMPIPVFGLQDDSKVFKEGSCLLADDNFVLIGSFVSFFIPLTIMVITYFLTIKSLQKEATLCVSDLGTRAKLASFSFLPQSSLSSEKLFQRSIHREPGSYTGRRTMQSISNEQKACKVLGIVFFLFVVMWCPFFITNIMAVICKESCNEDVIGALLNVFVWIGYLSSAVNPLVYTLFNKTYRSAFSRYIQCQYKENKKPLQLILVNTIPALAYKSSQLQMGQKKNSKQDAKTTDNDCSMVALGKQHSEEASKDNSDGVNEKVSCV
Experiment: Serotonin 5-HT2A in vitro cellular IPOne agonism assay (HTRF)
Settings: CHO-K1 cells, agonist mode
Procedure: Serotonin 5-HT2A In Vitro Cellular IPOne Agonism Assay. The 5-HT2A IPOne HTRF assay was performed at Epics Therapeutics S.A. (Belgium, FAST-0505I) using conventional methods. […] After addition of the lysis buffer containing IP1-d2 and anti-IP1 cryptate detection reagents, plates were incubated 1-hour at room temperature, and fluorescence ratios were measured according to the manufacturer specification, with the HTRF kit.
PROPERTY_LABEL: EC50

-- ask Assign EC50 to the following record: Cn1c2c(c3ccc(OCc4ccc(F)cc4)cc31)CCNCC2 [Compound 9]
-- reply > 10 µM

-- ask Assign EC50 to the following record: Fc1ccc(Oc2ccc3c4c([nH]c3c2)CCNCC4)cc1 [Compound 15]
-- reply 0.101 to 1 µM

-- ask Assign EC50 to the following record: Cn1c2c(c3ccc(Oc4ccc(F)cc4)cc31)CCNCC2 [Compound 17]
-- reply 0.101 to 1 µM

-- ask Assign EC50 to the following record: CN1CCc2c(n(C)c3cc(Oc4ccc(F)cc4)ccc23)CC1 [Compound 18]
-- reply > 10 µM

-- ask Assign EC50 to the following record: c1ccc(COc2ccc3c4c([nH]c3c2)CCNCC4)cc1 [Compound 3]
-- reply 0.101 to 1 µM

-- ask Assign EC50 to the following record: CN1CCc2[nH]c3c(OCc4ccccc4)cccc3c2CC1 [Compound 28]
-- reply > 10 µM

-- ask Assign EC50 to the following record: c1ccc(COc2cccc3c4c([nH]c23)CCNCC4)cc1 [Compound 27]
-- reply 0.101 to 1 µM

-- ask Assign EC50 to the following record: Cn1c2c(c3c(Oc4ccc(F)cc4)cccc31)CCNCC2 [Compound 23]
-- reply 0.101 to 1 µM

-- ask Assign EC50 to the following record: Fc1ccc(COc2ccc3c4c([nH]c3c2)CCNCC4)cc1 [Compound 7]
-- reply 0.101 to 1 µM

-- ask Assign EC50 to the following record: Cn1c2c(c3ccc(OCc4ccccc4)cc31)CCNCC2 [Compound 5]
-- reply > 10 µM

-- ask Assign EC50 to the following record: CN1CCc2c(n(C)c3cc(Oc4ccccc4)ccc23)CC1 [Compound 14]
-- reply > 10 µM

-- ask Assign EC50 to the following record: Fc1ccc(Oc2cccc3[nH]c4c(c23)CCNCC4)cc1 [Compound 21]
-- reply 0.01 to 0.1 µM

-- ask Assign EC50 to the following record: c1ccc(COc2cccc3[nH]c4c(c23)CCNCC4)cc1 [Compound 4]
-- reply < 0.01 µM

-- ask Assign EC50 to the following record: CN1CCc2[nH]c3cc(OCc4ccc(F)cc4)ccc3c2CC1 [Compound 8]
-- reply > 10 µM

-- ask Assign EC50 to the following record: c1ccc(COc2ccc3[nH]c4c(c3c2)CCNCC4)cc1 [Compound 25]
-- reply > 10 µM

====

system: rat cortical neurons; assay: Neurite outgrowth assay; assay type: cell-based; set-up: key: A: Statistically significant mean increase as a percent of DMSO control at 10 μM or less.; B: No statistically significant mean increase as a percent of DMSO control at 10 μM or less; conditions: 72 h, 10 μM or less, vs DMSO control

SMILES_TEXT	Increase in Neurite Length
CN1CCc2[nH]c3cc(Oc4ccccc4)ccc3c2CC1	A
c1ccc(COc2ccc3[nH]c4c(c3c2)CCNCC4)cc1	A
c1ccc(Oc2cccc3[nH]c4c(c23)CCNCC4)cc1	B
